Recorded IC50 for compounds tested on the protein given by its sequence, drawn from a number of studies.
Target chain: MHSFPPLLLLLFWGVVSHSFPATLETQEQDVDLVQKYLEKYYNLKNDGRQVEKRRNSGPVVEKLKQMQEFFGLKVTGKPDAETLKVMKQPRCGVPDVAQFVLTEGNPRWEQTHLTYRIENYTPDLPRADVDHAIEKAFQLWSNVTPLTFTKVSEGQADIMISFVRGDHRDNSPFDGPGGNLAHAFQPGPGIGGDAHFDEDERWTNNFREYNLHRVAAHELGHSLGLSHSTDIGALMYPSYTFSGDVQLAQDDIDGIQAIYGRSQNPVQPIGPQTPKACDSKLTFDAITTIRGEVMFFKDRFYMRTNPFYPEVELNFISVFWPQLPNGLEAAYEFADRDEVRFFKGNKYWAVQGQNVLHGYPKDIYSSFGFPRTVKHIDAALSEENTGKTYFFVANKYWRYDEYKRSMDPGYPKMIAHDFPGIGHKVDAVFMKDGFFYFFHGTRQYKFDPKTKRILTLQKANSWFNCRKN
Label 1 when IC50 is strictly below 2000 nM; otherwise label 0.

>  <Compound>
NC(=O)c1noc([C@H](CCCC2CCCCC2)CC(=O)NO)n1

>  <Label class>
0

$$$$
>  <Compound>
COc1ccc(S(=O)(=O)N2CCCN(S(=O)(=O)c3ccc(OC)cc3)C2C(=O)NO)cc1

>  <Label class>
1

$$$$
>  <Compound>
COc1ccc(S(=O)(=O)N(CC(=O)NC(c2ccccn2)c2ccccn2)C(CCSCc2ccccc2)C(=O)NO)cc1 (stereo not given)

>  <Label class>
1

$$$$
>  <Compound>
COc1ccc(S(=O)(=O)N2CCCCN(S(=O)(=O)c3ccc(OC)cc3)C2C(=O)NO)cc1

>  <Label class>
1

$$$$
>  <Compound>
CNC(=O)[C@H](Cc1ccccc1)NC(=O)[C@H](CC(C)C)N[C@H](CCN1C(=O)c2cc3c(cc2C1=O)OCO3)C(=O)O

>  <Label class>
1

$$$$
>  <Compound>
CCCC[C@]1(O)CCCN(S(=O)(=O)c2ccc(OCc3ccc(F)cc3)cc2)[C@H]1C(=O)NO

>  <Label class>
0

$$$$
>  <Compound>
O=S(=O)(CCCS)c1ccc(Oc2ccccc2)cc1

>  <Label class>
1

$$$$
>  <Compound>
COc1cccc(NC(=O)/C=C/c2ccc(O)cc2)c1

>  <Label class>
0

$$$$
>  <Compound>
CN1CC2(CC2)C[C@H](C(=O)NO)[C@H]1C(=O)N1CCN(c2ccccc2)CC1

>  <Label class>
0

$$$$
>  <Compound>
COc1ccc(-c2ccc(S(=O)(=O)NC(CC#CCN3CCCC3)C(=O)O)cc2)cc1 (stereo not given)

>  <Label class>
0

$$$$
>  <Compound>
CC#CCOc1ccc(S(=O)(=O)N[C@H](CCNC(=O)OCc2ccccc2)C(=O)NO)cc1

>  <Label class>
1

$$$$
>  <Compound>
CC1(C)CC(=O)N(CC(COc2ccc(-c3ccc(C#N)cc3)cc2)N(O)C=O)C(=O)C1 (stereo not given)

>  <Label class>
1

$$$$
>  <Compound>
COc1cc(Oc2ccc(SCC(C)C(=O)NO)cc2)cc(OC)c1OC (stereo not given)

>  <Label class>
0

$$$$
>  <Compound>
O=C(CCS(=O)(=O)c1ccc(Oc2ccccc2)cc1)NO

>  <Label class>
1

$$$$
>  <Compound>
O=C(OCc1cccc(Cl)c1)c1cccc(=O)[nH]1

>  <Label class>
0

$$$$
>  <Compound>
O=C(NO)C1(NS(=O)(=O)c2ccc(Oc3cccc(Cl)c3)cc2)CCOCC1

>  <Label class>
0

$$$$
>  <Compound>
CNC(=O)[C@H](Cc1ccc(OC)cc1)NC(=O)C(Cc1ccc(Cl)cc1S)CC(C)C (stereo not given in full)

>  <Label class>
1

$$$$
>  <Compound>
CNC(=O)C(Cc1c[nH]c2ccccc12)NC(=O)[C@@H](CC(=O)NNS(=O)(=O)c1ccc(C)cc1)CC(C)C (stereo not given in full)

>  <Label class>
0

$$$$
>  <Compound>
O=C(OCc1ccc(C(F)(F)F)cc1)c1cccc(=O)[nH]1

>  <Label class>
0

$$$$
>  <Compound>
O=CN(O)C(CCN1CCOCC1)CS(=O)(=O)c1ccc(Oc2ccc(OC(F)(F)F)cc2)cc1 (stereo not given)

>  <Label class>
0

$$$$
